Kindly state activity, negative = inhibition for each of the entries shown.
biological target: Cytochrome P450 2D6 (Homo sapiens); experiment: Cytochrome panel assay with activity outcomes; details: recombinant CYP, pro-luciferin dealkylation, luminescence, p450-cyp2d6; series mostly up to 57.1 µM; also: % is scaled to controls: 0 for no effect and ±100 for the full control effect
About 2,600 (16%) of roughly 16,000 compounds were called active. About 20% were inconclusive and are not listed. The list is a sample of the results.

Solved entries (count: 3):
[[record]]
structure_smiles = "C#CCCCO/N=C1/C[C@@H](O)[C@@H](O)[C@@H]2[C@H]3C(=O)N(c4ccc(F)cc4F)C(=O)[C@@H]3CC[C@@H]12"
value_observed = "8.28% [at 11.4 µM] (inactive)"

[[record]]
structure_smiles = "Cn1c(=O)c2c(nc(N/N=C\\c3ccccc3C(=O)O)n2C)n(C)c1=O"
value_observed = "5.12% [at 11.4 µM] (inactive)"

[[record]]
structure_smiles = "Nc1nc2c(C(=O)NCc3cccs3)nnn2c2cccc(Cl)c12"
value_observed = "6.61% [at 11.4 µM] (inactive)"


Please report activity, negative = inhibition for every entry that follows.
1. COC(=O)CC[C@@H](C)[C@H]1CC[C@H]2[C@H]3CC[C@H]4C[C@@H]5CC[C@@]4(C)C3(O5)[C@@H](Br)[C@@H](Br)[C@@]12C
2. O=[N+]([O-])c1ccc([C@@H](Nc2ccccc2)c2ccc3cccnc3c2O)cc1

Response:
["-11.7% [at 11.4 µM] (inactive)", "-2.01% [at 11.4 µM] (inactive)"]
